- System: Escherichia coli
- test-description: Antibacterial activity against Escherichia coli TOP10 expressing metallo-beta-lactamase NDM-1
- Assay type: functional
measured-property: MIC (µg/mL)
Answer format: numeric, µg/mL implied, no suffix.

| compound | value-units | endpoint-value |
| --- | --- | --- |
| C[C@@H](O)[C@H]1C(=O)N2C(C(=O)O)=C(S[C@@H]3CN[C@H](C(=O)Nc4cccc(C(=O)O)c4)C3)[C@H](C)[C@H]12 [ERTAPENEM] | µg/mL | 3 |
| CO/N=C(\C(=O)N[C@@H]1C(=O)N2C(C(=O)[O-])=C(C[N+]3(C)CCCC3)CS[C@H]12)c1csc(N)n1 [CEFEPIME] | µg/mL | 16 |

Pending compound:
Reported MIC for CCN1CCN(C(=O)N[C@@H](C(=O)N[C@@H]2C(=O)N3[C@@H]2SC(C)(C)[C@@H]3C(=O)O)c2ccccc2)C(=O)C1=O [PIPERACILLIN] was 512
